The origin of these recorded values is paper PMC11510591.

- Assay Text: Stability in acidic medium (0.01 M HCl)
- Assay type: physicochemical
- Test Parameters: 0.01 M HCl pH 2, start of incubation
Measured Property: Peak Area, t0
Respond with the number and no other words.

COc1ccc2cc(C(C)N(O)C(C)=O)ccc2c1 (centres unmarked) [Compound 12]	48.66

Which Peak Area, t0 is listed for COc1ccc2c(c1)c(CNC(=O)NO)c(C)n2C(=O)c1ccc(Cl)cc1 [Compound 1] ?
8.28

Which Peak Area, t0 is listed for CC(NC(=O)NO)c1ccc(-c2ccccc2)c(F)c1 (centres unmarked) [Compound 2] ?
6.57

Which Peak Area, t0 is listed for CC(=O)N(O)C(C)c1ccc(CC(C)C)cc1 (centres unmarked) [Compound 11] ?
11.01

Which Peak Area, t0 is listed for O=C(NO)NCc1ccccc1Nc1c(Cl)cccc1Cl [Compound 3] ?
6.42
